# tested-target: T1, human ROR1 (hROR1) on cells (human, UniProt Q01973 30-937)
# T1 construct: whole, on cells; the cell line is named under assay; also called HEK293T-hROR1; 293T-hROR1
# T1 sequence (Q01973 30-937): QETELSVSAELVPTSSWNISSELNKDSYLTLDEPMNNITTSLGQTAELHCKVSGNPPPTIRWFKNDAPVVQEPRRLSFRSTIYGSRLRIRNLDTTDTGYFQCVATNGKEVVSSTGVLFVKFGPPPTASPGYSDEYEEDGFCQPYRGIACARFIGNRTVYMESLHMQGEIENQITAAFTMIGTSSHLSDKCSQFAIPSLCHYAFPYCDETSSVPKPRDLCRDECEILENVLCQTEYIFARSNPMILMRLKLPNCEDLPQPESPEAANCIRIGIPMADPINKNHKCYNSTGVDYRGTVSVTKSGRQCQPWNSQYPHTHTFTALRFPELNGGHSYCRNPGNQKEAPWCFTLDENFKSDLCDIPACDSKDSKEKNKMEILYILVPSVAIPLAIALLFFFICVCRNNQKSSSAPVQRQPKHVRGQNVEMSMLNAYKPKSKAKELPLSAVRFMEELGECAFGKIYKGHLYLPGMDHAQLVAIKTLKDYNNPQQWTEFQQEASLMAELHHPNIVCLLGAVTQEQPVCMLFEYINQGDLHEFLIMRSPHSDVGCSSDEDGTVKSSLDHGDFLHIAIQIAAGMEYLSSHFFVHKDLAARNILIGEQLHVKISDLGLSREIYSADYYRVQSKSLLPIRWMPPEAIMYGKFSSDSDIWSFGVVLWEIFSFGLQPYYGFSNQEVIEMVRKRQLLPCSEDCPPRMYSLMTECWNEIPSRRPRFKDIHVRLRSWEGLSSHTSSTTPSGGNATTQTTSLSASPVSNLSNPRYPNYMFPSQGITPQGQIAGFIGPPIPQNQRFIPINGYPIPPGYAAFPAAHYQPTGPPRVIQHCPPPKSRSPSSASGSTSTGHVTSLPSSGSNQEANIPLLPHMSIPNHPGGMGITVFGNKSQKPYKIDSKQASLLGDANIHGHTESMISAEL
# measurement-description: FACS, HEK293T-hROR1 cells; also: test concentration or dose not given here
measured-attribute: MFI (MFI)
Value expressed in MFI; do not type the unit.

*Q* Give its MFI value. Item: PR002579 (antibody, human IgG1, kappa, V domains shown, PR001364 variant: VH G55A, VL S93A; hIgG1; also called anti-ROR1 1015M3-D8(H: G55A; L: S93A) hIgG1) VH: EVQLLESGGGVVQPGRSLRLSCAASGFTFSSFGMHWVRQAPGKGLEWVAVIWYDASDKDYADSVKGRFTISRDTSKNTLYLQMNSLRAEDTAVYYCAREQARSFDLWGRGTLVTVSS VL: DIVMTQSPSTLSASVGDRVTITCRASQTINNWLAWYQQKPGKAPKLLIYKASSLESGVPSRFSGSGSGTEFTLTISSLQPDDFATYYCQQYNAYSPMYTFGQGTKVEIKR
*A* 43100

*Q* Input PR002571 (antibody, human IgG1, kappa, V domains shown, PR001356 variant: VH G55A; hIgG1; also called anti-ROR1 1015M2-E6(H: G55A) hIgG1) VH: QVQLVESGGGVVQPGRSLRLSCAASGFTFSSYGMHWVRQAPGKGLEWVAVAWYDAVSEDYADSVKGRFTISRDNAKNTLYLQMNSLRAEDTAVYYCAREQARSFDLWGRGTLVTVSS VL: DIVMTQSPSTLSASVGDRVTITCRASQSINNWLAWYQQKPGKAPKLLIYKASSLESGVPSRFSGSGSGTEFTLTISSLQPDDFATYYCQQYKSYSPMYTFGQGTKVEIKR
*A* 49600

*Q* Input PR002568 (antibody, human IgG1, kappa, V domains shown, PR001354 variant: VH G55A, VL N92Q; hIgG1; also called anti-ROR1 1015M2-C9(H: G55A; L: N92Q) hIgG1) VH: QVQLVQSGGGVVQPGRSLRLSCAASGFTFSSYGMHWVRQAPGKGLEWVAIMWYDASDKDYADSVKGRFTISRDTSKNTLYLQMNSLRAEDTAVYYCAREQARSFDLWGRGTLVTVSS VL: DIVMTQSPSSLSASVGDRVTITCRASQTINNWLAWYQQKPGKAPKLLIYKASSLESGVPSRFSGSGSGTEFTLTISSLQPDDFATYYCQQYQSYSPMYTFGQGTKVEIKR
*A* 46300

*Q* Input PR002569 (antibody, human IgG1, kappa, V domains shown, PR001354 variant: VH G55A, VL S93A; hIgG1; also called anti-ROR1 1015M2-C9(H: G55A; L: S93A) hIgG1) VH: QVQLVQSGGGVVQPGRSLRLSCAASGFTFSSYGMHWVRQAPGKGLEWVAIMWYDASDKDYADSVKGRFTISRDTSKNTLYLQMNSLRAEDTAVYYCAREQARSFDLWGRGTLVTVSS VL: DIVMTQSPSSLSASVGDRVTITCRASQTINNWLAWYQQKPGKAPKLLIYKASSLESGVPSRFSGSGSGTEFTLTISSLQPDDFATYYCQQYNAYSPMYTFGQGTKVEIKR
*A* 34500

*Q* Input PR002572 (antibody, human IgG1, kappa, V domains shown, PR001364 variant: VL N92Q; hIgG1; also called anti-ROR1 1015M3-D8(L: N92Q) hIgG1) VH: EVQLLESGGGVVQPGRSLRLSCAASGFTFSSFGMHWVRQAPGKGLEWVAVIWYDGSDKDYADSVKGRFTISRDTSKNTLYLQMNSLRAEDTAVYYCAREQARSFDLWGRGTLVTVSS VL: DIVMTQSPSTLSASVGDRVTITCRASQTINNWLAWYQQKPGKAPKLLIYKASSLESGVPSRFSGSGSGTEFTLTISSLQPDDFATYYCQQYQSYSPMYTFGQGTKVEIKR
*A* 43000
